Measured values drawn from patent US20220356174A1 for this set.

# system.under.test: FL-SMARCA2 (full-length human SMARCA2 isoform 1) (Homo sapiens, UniProt P51531)
# Construct: FLAG tag (YKDDDDK) (C); made in house; host or cells: Sf21 insect cells (baculovirus, pFastBacI)
# Sequence (P51531 with tags, fused parts or gaps): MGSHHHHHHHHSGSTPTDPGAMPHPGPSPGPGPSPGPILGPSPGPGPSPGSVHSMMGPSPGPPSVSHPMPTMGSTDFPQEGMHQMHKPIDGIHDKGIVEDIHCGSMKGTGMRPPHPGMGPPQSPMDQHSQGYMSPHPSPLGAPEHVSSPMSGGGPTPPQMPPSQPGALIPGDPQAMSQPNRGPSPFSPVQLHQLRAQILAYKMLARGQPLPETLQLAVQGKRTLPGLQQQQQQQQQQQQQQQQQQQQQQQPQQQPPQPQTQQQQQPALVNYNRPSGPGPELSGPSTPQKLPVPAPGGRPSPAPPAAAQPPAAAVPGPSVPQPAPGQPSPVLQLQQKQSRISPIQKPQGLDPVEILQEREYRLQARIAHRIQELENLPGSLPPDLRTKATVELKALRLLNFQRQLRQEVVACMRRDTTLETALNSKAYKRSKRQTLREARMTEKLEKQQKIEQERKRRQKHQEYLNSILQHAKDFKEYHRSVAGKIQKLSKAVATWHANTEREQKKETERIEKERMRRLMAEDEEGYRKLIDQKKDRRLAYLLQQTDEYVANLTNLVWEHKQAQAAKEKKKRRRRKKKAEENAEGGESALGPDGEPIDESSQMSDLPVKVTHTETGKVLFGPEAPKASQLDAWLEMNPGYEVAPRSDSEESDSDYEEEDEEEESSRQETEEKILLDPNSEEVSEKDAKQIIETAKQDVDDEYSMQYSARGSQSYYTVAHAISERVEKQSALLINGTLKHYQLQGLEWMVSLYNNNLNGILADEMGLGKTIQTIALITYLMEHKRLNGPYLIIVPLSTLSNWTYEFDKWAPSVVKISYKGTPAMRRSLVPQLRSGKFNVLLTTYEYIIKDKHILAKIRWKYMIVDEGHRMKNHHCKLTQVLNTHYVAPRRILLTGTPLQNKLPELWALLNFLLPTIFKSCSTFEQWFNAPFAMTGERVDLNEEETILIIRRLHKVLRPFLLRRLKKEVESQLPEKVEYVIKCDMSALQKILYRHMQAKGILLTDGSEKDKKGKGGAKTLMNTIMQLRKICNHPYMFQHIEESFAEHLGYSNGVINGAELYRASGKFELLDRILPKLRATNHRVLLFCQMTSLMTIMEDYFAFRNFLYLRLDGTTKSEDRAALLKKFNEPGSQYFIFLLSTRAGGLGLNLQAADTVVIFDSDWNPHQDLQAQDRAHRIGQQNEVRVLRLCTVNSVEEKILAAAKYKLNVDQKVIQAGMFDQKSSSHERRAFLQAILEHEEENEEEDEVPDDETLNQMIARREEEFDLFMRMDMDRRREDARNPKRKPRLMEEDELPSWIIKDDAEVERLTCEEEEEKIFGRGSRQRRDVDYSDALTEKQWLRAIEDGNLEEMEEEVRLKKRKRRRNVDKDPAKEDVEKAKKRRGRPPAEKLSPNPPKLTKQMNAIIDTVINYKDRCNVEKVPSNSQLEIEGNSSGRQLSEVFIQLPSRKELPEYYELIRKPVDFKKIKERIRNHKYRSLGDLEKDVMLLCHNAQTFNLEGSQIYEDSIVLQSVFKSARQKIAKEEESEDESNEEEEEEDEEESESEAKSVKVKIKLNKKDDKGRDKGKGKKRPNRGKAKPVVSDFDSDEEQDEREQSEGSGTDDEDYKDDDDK
# experimental.protocol: SMARCA2 ATPase activity assay (ADP-Glo, chicken mononucleosome substrate)
# Assay type: biochemical
# measurement.context: Table 3.1; ATPase assay, enzyme 5 nM, ATP 250 uM, chicken mononucleosome 10 nM, 30 min preincubation
test.readout: pIC50
Give bare numbers, as −log10 of the molar value.

| structure.string | reported.result |
| --- | --- |
| Cn1c(C(=O)Nc2cc(C#N)c(=O)n(CCF)c2)cnc1Cl | 4.75 |
| O=C(Nc1ccc(=O)n(CC(F)(F)F)c1)c1cc(Cl)c(Cl)[nH]1 | 5.56 |
| Cn1c(C(=O)Nc2cc(Cl)c(=O)n(CCF)c2)cnc1Cl | 5.51 |
| Cn1nc(Cl)cc1C(=O)Nc1cc(F)c(=O)n(CCF)c1 | 5.12 |
| O=C(Nc1cc(NCCn2ccnc2)c(=O)n(CCF)c1)c1cc(Cl)c(Cl)s1 | 4.67 |

Moving on to another compound below.
IN: Entry `CCn1cc(NC(=O)c2cnc(C#N)s2)cc(F)c1=O` has what pIC50?
OUT: 7.57

---

Assign IC50 to each entry below.
# system.under.test: FL-SMARCA2 (full-length human SMARCA2 isoform 1) (Homo sapiens, UniProt P51531)
# Construct: FLAG tag (YKDDDDK) (C); made in house; host or cells: Sf21 insect cells (baculovirus, pFastBacI)
# experimental.protocol: SMARCA2 ATPase activity assay (ADP-Glo, chicken mononucleosome substrate)
# Assay type: biochemical
# measurement.context: Table 3d.1; ATPase assay, enzyme 5 nM, ATP 250 uM, chicken mononucleosome 10 nM, 30 min preincubation; read-out: FL-SMARCA2 IC>50

| compound | IC50 |
| --- | --- |
| CCn1nc(NC(=O)c2cc(Cl)c(Cl)s2)ccc1=O [Compound 19d] | > 50 µM |
| Cn1cnc2cc(C(=O)Nc3cc(F)c(=O)n(CCF)c3)[nH]c2c1=O [Compound 48d] | > 50 µM |

Continue with the compound presented below.
IN: # get_value(readout='IC50', item= CCc1cc(=O)n(CC)cc1NC(=O)c1cc(Cl)c(Cl)s1 [Compound 28d] )
OUT: > 50 µM

---

# system.under.test: FL-SMARCA4 (Homo sapiens, UniProt P51532)
# Sequence (P51532 whole entry): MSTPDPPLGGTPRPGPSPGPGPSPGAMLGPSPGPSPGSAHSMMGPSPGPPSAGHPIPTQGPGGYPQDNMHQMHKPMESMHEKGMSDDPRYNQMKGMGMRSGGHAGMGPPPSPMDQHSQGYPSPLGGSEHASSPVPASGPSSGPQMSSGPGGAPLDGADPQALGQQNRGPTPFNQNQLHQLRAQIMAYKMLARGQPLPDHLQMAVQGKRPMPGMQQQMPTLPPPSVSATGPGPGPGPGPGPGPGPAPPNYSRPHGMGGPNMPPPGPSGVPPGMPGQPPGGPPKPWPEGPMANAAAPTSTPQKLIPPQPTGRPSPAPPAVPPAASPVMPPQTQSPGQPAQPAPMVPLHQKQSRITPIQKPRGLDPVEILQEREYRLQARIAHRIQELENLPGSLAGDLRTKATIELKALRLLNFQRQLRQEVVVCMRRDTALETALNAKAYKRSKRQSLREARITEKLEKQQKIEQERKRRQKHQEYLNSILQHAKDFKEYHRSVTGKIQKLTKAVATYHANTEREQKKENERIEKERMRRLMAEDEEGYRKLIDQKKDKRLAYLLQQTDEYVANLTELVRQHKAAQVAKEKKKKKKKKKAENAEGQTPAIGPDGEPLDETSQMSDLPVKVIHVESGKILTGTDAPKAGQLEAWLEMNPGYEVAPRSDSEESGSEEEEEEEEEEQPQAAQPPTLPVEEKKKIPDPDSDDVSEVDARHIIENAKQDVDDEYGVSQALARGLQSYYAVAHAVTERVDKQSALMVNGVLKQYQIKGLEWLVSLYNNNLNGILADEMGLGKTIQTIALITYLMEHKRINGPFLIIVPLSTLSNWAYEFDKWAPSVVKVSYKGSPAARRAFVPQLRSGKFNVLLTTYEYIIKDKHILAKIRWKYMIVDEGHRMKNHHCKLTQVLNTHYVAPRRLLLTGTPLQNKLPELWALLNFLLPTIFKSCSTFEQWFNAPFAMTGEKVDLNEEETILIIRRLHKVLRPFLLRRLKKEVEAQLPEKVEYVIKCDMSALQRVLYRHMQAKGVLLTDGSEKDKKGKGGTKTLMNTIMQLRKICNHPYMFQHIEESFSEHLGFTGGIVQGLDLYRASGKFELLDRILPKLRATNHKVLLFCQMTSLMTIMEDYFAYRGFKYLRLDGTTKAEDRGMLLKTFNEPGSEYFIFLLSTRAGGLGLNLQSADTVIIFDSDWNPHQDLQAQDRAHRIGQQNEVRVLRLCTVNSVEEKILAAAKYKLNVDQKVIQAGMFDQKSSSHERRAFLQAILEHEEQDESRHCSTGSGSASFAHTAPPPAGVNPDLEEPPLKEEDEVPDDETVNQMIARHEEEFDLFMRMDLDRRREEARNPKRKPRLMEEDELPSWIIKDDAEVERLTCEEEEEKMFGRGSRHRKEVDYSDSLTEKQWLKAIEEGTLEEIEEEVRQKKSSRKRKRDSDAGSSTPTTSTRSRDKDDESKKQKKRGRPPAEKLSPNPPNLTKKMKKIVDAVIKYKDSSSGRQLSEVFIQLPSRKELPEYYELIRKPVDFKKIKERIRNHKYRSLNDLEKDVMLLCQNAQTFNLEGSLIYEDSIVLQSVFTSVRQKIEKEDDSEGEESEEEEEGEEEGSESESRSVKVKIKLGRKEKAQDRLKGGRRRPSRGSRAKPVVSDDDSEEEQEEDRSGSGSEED
# experimental.protocol: SMARCA4 ATPase activity assay (ADP-Glo, chicken mononucleosome substrate)
# measurement.context: FL-SMARCA4 IC>50, Table 3c.2; ATPase assay, enzyme 5 nM, ATP 250 uM, chicken mononucleosome 10 nM, 30 min preincubation
test.readout: log10 IC50 (log10 of the value in µM)
# log10 transformed; quantity=IC50; unit=µM

Reference set (5 entries):
| molecule | log10 IC50 |
| --- | --- |
| O=C(Nc1cc(F)c(=O)n(CC(F)F)c1)c1cc(C#Cc2cccnc2)c(C(F)(F)F)s1 [Compound 65c] | -0.81 |
| O=C(Nc1cc(F)c(=O)n(CC(F)F)c1)c1cc(C#Cc2cn[nH]c2)c(Cl)s1 [Compound 83c] | -1.20 |
| CNC(=O)c1cc(C#Cc2cc(C(=O)Nc3cc(F)c(=O)n(CC(F)F)c3)sc2Cl)nn1C [Compound 154c] | -0.83 |
| O=C(Nc1cc(F)c(=O)n(CC(F)F)c1)c1cc(C#Cc2ccnnc2)c(Cl)s1 [Compound 133c] | -1.22 |
| O=C(Nc1cc(C2COC2)c(=O)n(CC(F)F)c1)c1cc(F)c(Cl)s1 [Compound 155c] | 1.56 |

Answer for every listed entry: what is its log10 IC50? The entries follow.
1. CN(C)C(=O)c1cccc(C#Cc2cc(C(=O)Nc3cc(F)c(=O)n(CC(F)F)c3)sc2Cl)c1 [Compound 74c]
2. O=C(Nc1cc(F)c(=O)n(CC(F)F)c1)c1cc(C#Cc2c[nH]cn2)c(Cl)s1 [Compound 113c]
3. N#Cc1sc(C(=O)Nc2cc(F)c(=O)n(CC(F)F)c2)cc1C#CC1COC1 [Compound 177c]
4. N#Cc1sc(C(=O)Nc2cc(F)c(=O)n(CC(F)F)c2)cc1C#Cc1ccncc1 [Compound 134c]
5. CNC(=O)c1cccc(C#Cc2cc(C(=O)Nc3cc(F)c(=O)n(CC(F)F)c3)sc2Cl)c1 [Compound 86c]

OUT:
1: -0.61; 2: -0.95; 3: -1.10; 4: -1.89; 5: -1.35

Okay, here is my list. What is log10 IC50 for each of these?
1. O=C(Nc1cc(F)c(=O)n(CC(F)F)c1)c1cc(C#Cc2cn3c(n2)CNCC3)c(Cl)s1 [Compound 147c]
2. Cc1nc(C#Cc2cc(C(=O)Nc3cc(F)c(=O)n(CC(F)F)c3)sc2Cl)cs1 [Compound 61c]
3. CN(C)Cc1cc(C#Cc2cc(C(=O)Nc3cc(F)c(=O)n(CC(F)F)c3)sc2Cl)n(C)n1 [Compound 149c]

OUT:
0.90
-1.06
1.21
